The values you see were collected from ChEMBL document CHEMBL3621057.

# SYSTEM: D(1A) dopamine receptor (Homo sapiens)
# Sequence (P21728 whole entry): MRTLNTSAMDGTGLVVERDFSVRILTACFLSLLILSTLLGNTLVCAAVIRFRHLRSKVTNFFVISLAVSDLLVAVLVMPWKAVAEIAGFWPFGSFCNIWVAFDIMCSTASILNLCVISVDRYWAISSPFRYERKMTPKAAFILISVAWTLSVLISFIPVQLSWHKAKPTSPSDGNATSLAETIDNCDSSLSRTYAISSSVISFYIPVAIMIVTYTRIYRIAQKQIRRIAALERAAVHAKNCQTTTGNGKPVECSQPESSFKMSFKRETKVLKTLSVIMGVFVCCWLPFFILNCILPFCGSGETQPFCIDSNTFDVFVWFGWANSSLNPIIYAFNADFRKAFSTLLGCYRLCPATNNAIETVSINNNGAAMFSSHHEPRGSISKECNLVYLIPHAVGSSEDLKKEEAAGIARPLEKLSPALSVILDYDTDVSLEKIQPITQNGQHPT
# PROTOCOL: Displacement of [3H]SCH23390 from human dopamine D1 receptor expressed in HEK cells
Here the recorded pKi is given for each entry.
Interpret pKi as the negative base-10 log of the concentration measured in mol/L.

Brc1ccc(NCCN2CCN(CCc3c[nH]c4ccccc34)CC2)cc1	6.32

Report pKi for CCCN(CCN1CCN(CCc2c[nH]c3ccccc23)CC1)c1ccc(Br)cc1
6.60

====

Here the recorded Ki is given for each entry.
# SYSTEM: D(2) dopamine receptor (Homo sapiens, UniProt P14416)
# Sequence (P14416 whole entry): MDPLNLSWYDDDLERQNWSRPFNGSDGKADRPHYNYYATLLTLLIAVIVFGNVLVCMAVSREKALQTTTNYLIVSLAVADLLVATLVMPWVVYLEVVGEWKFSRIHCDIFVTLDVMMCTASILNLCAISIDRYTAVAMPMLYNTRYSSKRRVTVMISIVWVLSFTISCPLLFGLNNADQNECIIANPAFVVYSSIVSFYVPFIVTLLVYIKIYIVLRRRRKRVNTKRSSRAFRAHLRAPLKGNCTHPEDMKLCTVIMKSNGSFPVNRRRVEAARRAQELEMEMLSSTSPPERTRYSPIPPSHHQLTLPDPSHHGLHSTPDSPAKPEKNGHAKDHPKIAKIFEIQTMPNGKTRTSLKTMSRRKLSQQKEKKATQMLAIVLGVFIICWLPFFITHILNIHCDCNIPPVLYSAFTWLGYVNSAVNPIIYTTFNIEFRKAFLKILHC
# PROTOCOL: Displacement of [3H]spiperone from human dopamine D2L receptor expressed in CHO cells
# Type: cell-based
Write the number in nM without appending the unit.

Consider the reported Ki for these compounds:
Brc1ccc(CNCCN2CCN(Cc3cc4ccccc4[nH]3)CC2)cc1	5200
CCCN(CCN1CCN(Cc2cc3ccccc3[nH]2)CC1)c1ccc(OC)cc1	520
CCCN(CCN1CCN(Cc2cc3ccccc3[nH]2)CC1)c1ccc(Br)cc1	220
COc1ccc(CNCCN2CCN(Cc3cc4ccccc4[nH]3)CC2)cc1	4000
CCCN(CCN1CCN(Cc2cc3ccccc3[nH]2)CC1)Cc1ccc(OC)cc1	4100
Brc1ccc(NCCN2CCN(Cc3cc4ccccc4[nH]3)CC2)cc1	920

Report Ki for COc1ccc(NCCN2CCN(Cc3cc4ccccc4[nH]3)CC2)cc1
7500

Report Ki for Brc1ccc(NCCN2CCN(CCc3c[nH]c4ccccc34)CC2)cc1
53

Report Ki for CCCN(CCN1CCN(CCc2c[nH]c3ccccc23)CC1)c1ccc(Br)cc1
58

Report Ki for CCCN(CCN1CCN(CCc2c[nH]c3ccccc23)CC1)c1ccc(OC)cc1
120

Report Ki for COc1ccc(NCCN2CCN(CCc3c[nH]c4ccccc34)CC2)cc1
430

Report Ki for CCCN(CCN1CCN(Cc2cc3ccccc3[nH]2)CC1)Cc1ccc(Br)cc1
920

====

# SYSTEM: D(4) dopamine receptor (Homo sapiens)
# Sequence (P21917 whole entry): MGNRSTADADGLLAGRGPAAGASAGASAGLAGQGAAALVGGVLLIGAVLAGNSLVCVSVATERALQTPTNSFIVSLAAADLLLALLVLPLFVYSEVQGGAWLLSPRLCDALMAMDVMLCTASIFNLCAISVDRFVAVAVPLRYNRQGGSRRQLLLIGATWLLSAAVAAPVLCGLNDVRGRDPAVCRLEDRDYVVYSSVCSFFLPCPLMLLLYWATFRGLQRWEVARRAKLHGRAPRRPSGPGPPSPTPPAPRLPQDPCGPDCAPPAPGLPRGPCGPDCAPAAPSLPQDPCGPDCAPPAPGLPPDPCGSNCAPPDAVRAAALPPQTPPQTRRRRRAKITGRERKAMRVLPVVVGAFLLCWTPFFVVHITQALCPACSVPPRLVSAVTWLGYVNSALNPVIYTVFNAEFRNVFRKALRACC
Here the recorded Ki is given for each entry.

Brc1ccc(NCCN2CCN(CCc3c[nH]c4ccccc34)CC2)cc1	20 nM

Now for another entry.
Report Ki for CCCN(CCN1CCN(CCc2c[nH]c3ccccc23)CC1)c1ccc(Br)cc1
0.72 nM

====

Consider compounds characterized by their Ki with UniProt P35462.
Sequence (P35462 whole entry): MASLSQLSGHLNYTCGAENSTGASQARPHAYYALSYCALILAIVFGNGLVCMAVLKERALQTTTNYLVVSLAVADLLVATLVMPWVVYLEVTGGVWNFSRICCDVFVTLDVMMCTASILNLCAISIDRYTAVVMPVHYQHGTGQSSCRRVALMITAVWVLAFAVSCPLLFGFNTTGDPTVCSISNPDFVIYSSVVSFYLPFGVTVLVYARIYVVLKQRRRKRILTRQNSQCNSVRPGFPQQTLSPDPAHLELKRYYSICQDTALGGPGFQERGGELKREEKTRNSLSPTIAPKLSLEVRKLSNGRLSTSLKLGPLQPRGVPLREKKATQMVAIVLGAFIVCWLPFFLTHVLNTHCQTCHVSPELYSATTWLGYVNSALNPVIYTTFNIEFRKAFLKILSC
Write the number in µM without appending the unit.

Consider the reported Ki for these compounds:
CCCN(CCN1CCN(Cc2cc3ccccc3[nH]2)CC1)c1ccc(Br)cc1	0.6
COc1ccc(NCCN2CCN(CCc3c[nH]c4ccccc34)CC2)cc1	0.62
CCCN(CCN1CCN(Cc2cc3ccccc3[nH]2)CC1)c1ccc(OC)cc1	1.3
COc1ccc(CNCCN2CCN(Cc3cc4ccccc4[nH]3)CC2)cc1	4.3
CCCN(CCN1CCN(CCc2c[nH]c3ccccc23)CC1)c1ccc(OC)cc1	0.28

Answer briefly: Ki recorded on UniProt P35462 for Brc1ccc(NCCN2CCN(Cc3cc4ccccc4[nH]3)CC2)cc1
2.3

Answer briefly: Ki recorded on UniProt P35462 for CCCN(CCN1CCN(CCc2c[nH]c3ccccc23)CC1)c1ccc(Br)cc1
0.089

Answer briefly: Ki recorded on UniProt P35462 for Brc1ccc(NCCN2CCN(CCc3c[nH]c4ccccc34)CC2)cc1
0.2
